# Assayed system: human SCD1 enzyme (Homo sapiens)
# Test description: Tritiated water release assay (conversion of radiolabeled stearoyl-CoA to oleoyl-CoA)
# Type: biochemical
# Experimental parameters: 10 μM concentration of test compounds; microsomal SCD1, 3H stearoyl CoA, 37° C. 30 minutes; percent of control reaction; read-out: % Inhibition
We label by threshold. Values of inhibition at 10 µM strictly beneath 80% are rule met. Values of 80% and up are rule not met.

These recorded examples may help you get a feel for the data.
| Chemical structure | Class name |
| --- | --- |
| O=C(c1ccccc1C(F)(F)F)N1CCN(c2ncc(C#Cc3ccc(-n4cccc4)cc3)cn2)CC1 | rule met |
| O=C(c1ccccc1C(F)(F)F)N1CCN(c2ncc(C#Cc3ccc4[nH]ccc4c3)cn2)CC1 | rule met |
| CC(=O)Oc1cccc(C#Cc2ccc(N3CCC(Oc4ccccc4F)CC3)nn2)c1 | rule not met |

Field: below-cutoff. Rule: recorded inhibition at 10 µM strictly less than 80%. Subject: CCOC(=O)c1ccc(C#Cc2ccc(N3CCN(C(=O)c4ccccc4C(F)(F)F)CC3)nc2)nc1
rule met

For this compound, is inhibition at 10 µM lower than 80%? Oc1cccc(C#Cc2ccc(N3CCN(Cc4ccccc4F)CC3)nn2)c1
rule not met

====

# Assayed system: human SCD1 enzyme (Homo sapiens)
# Test description: Tritiated water release assay (conversion of radiolabeled stearoyl-CoA to oleoyl-CoA)
# Format: biochemical
# Experimental parameters: 10 μM concentration of test compounds; microsomal SCD1, 3H stearoyl CoA, 37° C. 30 minutes; percent of control reaction; read-out: % Inhibition
Measured quantity: inhibition at 10 µM (%)
Express the result in % but write the number alone.

| Molecule | Assayed system | Measured quantity | Measure unit | Measured result |
| --- | --- | --- | --- | --- |
| Oc1ccc(C#Cc2ccc(N3CCC(Oc4ccccc4F)CC3)nn2)cc1F [Example 82] | human SCD1 enzyme (Homo sapiens) | inhibition at 10 µM | % | 98 |
| Oc1ccc(C#Cc2ccc(N3CCC(Oc4ccc(Br)cc4F)CC3)nn2)cc1 [Example 81] | human SCD1 enzyme (Homo sapiens) | inhibition at 10 µM | % | 95 |
| O=C(c1ccccc1C(F)(F)F)N1CCN(c2ncc(C#Cc3ccc(O)cc3)cn2)CC1 [Example 42] | human SCD1 enzyme (Homo sapiens) | inhibition at 10 µM | % | 92 |
| COC(=O)c1ccc(C#Cc2ccc(N3CCN(C(=O)c4ccccc4C(F)(F)F)CC3)nc2)cc1 [Example 32] | human SCD1 enzyme (Homo sapiens) | inhibition at 10 µM | % | 35 |

Requested read-out: inhibition at 10 µM. Entry: O=C(c1ccccc1C(F)(F)F)N1CCN(c2ccc(C#Cc3ccc(F)cc3)nn2)CC1 [Example 39]
75

State the recorded inhibition at 10 µM for this entry: CCOC(=O)COc1cccc(C#Cc2ccc(N3CCN(C(=O)c4ccccc4C(F)(F)F)CC3)nc2)c1 [Example 26]
27

Looking for the measured inhibition at 10 µM of O=C(c1ccccc1C(F)(F)F)N1CCN(c2ccc(C#CCOc3ccc(F)cc3)cn2)CC1 [Example 11] , can you help?
63

Which inhibition at 10 µM is listed for CC(=O)Oc1cccc(C#Cc2ccc(N3CCC(Oc4ccccc4C(F)(F)F)CC3)nn2)c1 [Example 90] ?
95

====

# Assayed system: human SCD1 enzyme (Homo sapiens, UniProt O00767)
# Test description: Tritiated water release assay (conversion of radiolabeled stearoyl-CoA to oleoyl-CoA)
# Type: biochemical
# Experimental parameters: 10 μM concentration of test compounds; microsomal SCD1, 3H stearoyl CoA, 37° C. 30 minutes; percent of control reaction; read-out: % Inhibition
# Protocol: The in-vitro activity of the compounds of the present invention against stearoyl coenzyme desaturase was determined by following conversion of radiolabeled-stearoyl-CoA to oleoyl-CoA using human SCD1 enzyme using a previously published assay procedure with some modifications (Barbara R Talamo and Konrad Bloch, Analytical Biochemistry, 1969, 29, 300-304). This assay protocol is only illustrative and is not meant to limit to the scope of the present invention. […]
Measured quantity: inhibition at 10 µM (%)
Respond numerically; units are % and should not be typed.

| Molecule | Assayed system | Measure unit | inhibition at 10 µM |
| --- | --- | --- | --- |
| Fc1ccccc1CN1CCN(c2ccc(C#CC3CCCCO3)nn2)CC1 (centres unmarked) | human SCD1 enzyme (Homo sapiens, UniProt O00767) | % | 6 |
| Oc1ccc(C#Cc2ccc(N3CCC(Oc4cc(Cl)ccc4Cl)CC3)nn2)cc1 | human SCD1 enzyme (Homo sapiens, UniProt O00767) | % | 96 |
| O=C(c1ccccc1C(F)(F)F)N1CCN(c2ccc(C#Cc3ccc(C(F)(F)F)cc3)nn2)CC1 | human SCD1 enzyme (Homo sapiens, UniProt O00767) | % | 93 |

Reported inhibition at 10 µM, molecule N#Cc1ccccc1OC1CCN(c2ccc(C#Cc3cccc(O)c3)nn2)CC1 : ____
95

Dear colleague, I am looking for the recorded inhibition at 10 µM of the following molecule: O=C(Oc1ccc(C#Cc2ccc(N3CCC(Oc4ccccc4F)CC3)nn2)cc1)c1ccco1
86

====

# Assayed system: human SCD1 enzyme (Homo sapiens)
# Test description: Tritiated water release assay (conversion of radiolabeled stearoyl-CoA to oleoyl-CoA)
# Format: biochemical
# Experimental parameters: 10 μM concentration of test compounds; microsomal SCD1, 3H stearoyl CoA, 37° C. 30 minutes; percent of control reaction; read-out: % Inhibition
Measured quantity: inhibition at 10 µM (%)
Express it in %; write the number only.

Reported inhibition at 10 µM for O=C(c1ccccc1C(F)(F)F)N1CCN(c2ccc(C#CC3(O)CCCC3)cn2)CC1 : what is it?
19

Fill in the blank: the reported inhibition at 10 µM of CC(=O)Oc1ccc(C#Cc2ccc(N3CCC(Oc4cc(Cl)ccc4Cl)CC3)nn2)cc1 is ____.
97

Requested read-out: inhibition at 10 µM. Entry: CC(C)(C)c1ccc(OCC#Cc2ccc(N3CCN(C(=O)c4ccccc4C(F)(F)F)CC3)nc2)cc1
37

I am curious: what inhibition at 10 µM value has been reported for CC(=O)Oc1ccc(C#Cc2ccc(N3CCC(O)(Cc4cc(Cl)ccc4Cl)CC3)nn2)cc1 ?
87

====

# Assayed system: human SCD1 enzyme (Homo sapiens)
# Sequence (O00767 1-359): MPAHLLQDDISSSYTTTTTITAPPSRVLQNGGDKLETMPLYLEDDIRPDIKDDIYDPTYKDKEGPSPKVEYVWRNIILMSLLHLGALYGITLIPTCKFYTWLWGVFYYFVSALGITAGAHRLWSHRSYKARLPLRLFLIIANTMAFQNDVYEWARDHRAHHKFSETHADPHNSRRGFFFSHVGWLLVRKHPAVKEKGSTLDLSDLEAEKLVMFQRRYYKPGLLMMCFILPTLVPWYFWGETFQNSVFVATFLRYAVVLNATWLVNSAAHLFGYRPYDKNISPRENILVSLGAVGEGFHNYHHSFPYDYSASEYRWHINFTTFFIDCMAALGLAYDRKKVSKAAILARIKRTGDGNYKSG
# Test description: Tritiated water release assay (conversion of radiolabeled stearoyl-CoA to oleoyl-CoA)
# Assay type: biochemical
# Experimental parameters: 10 μM concentration of test compounds; microsomal SCD1, 3H stearoyl CoA, 37° C. 30 minutes; percent of control reaction; read-out: % Inhibition
Measured quantity: inhibition at 10 µM (%)
Write the answer as a number in %, unit excluded.

Past entries and their recorded results:
| Chemical structure | inhibition at 10 µM, % |
| --- | --- |
| O=C(c1ccccc1C(F)(F)F)N1CCN(c2ccc(C#Cc3cccc(CO)c3)cn2)CC1 | 20 |
| Oc1cccc(C#Cc2cnc(N3CCC(Oc4ccccc4F)CC3)nc2)c1 | 95 |
| N#Cc1ccc(OCC#Cc2ccc(N3CCN(C(=O)c4ccccc4C(F)(F)F)CC3)nc2)nc1 | 11 |
| CC(C)(C)C#Cc1ccc(N2CCN(C(=O)c3ccccc3C(F)(F)F)CC2)nc1 | 26 |
| O=C(c1ccccc1C(F)(F)F)N1CCN(c2ccc(C#CCOc3ccc(O)cc3)cn2)CC1 | 92 |
| Oc1cccc(C#Cc2ccc(N3CCC(Oc4ccccc4F)CC3)nn2)c1 | 100 |

Sample CC(=O)Oc1ccc(C#Cc2ccc(N3CCC(O)(Cc4ccccc4)CC3)nn2)cc1 — what was its inhibition at 10 µM?
97

Item CC(=O)Oc1ccc(C#Cc2ccc(N3CCC(Oc4ccccc4F)CC3)nn2)cc1 has what recorded inhibition at 10 µM?
88

====

# Assayed system: human SCD1 enzyme (Homo sapiens, UniProt O00767)
# Test description: Tritiated water release assay (conversion of radiolabeled stearoyl-CoA to oleoyl-CoA)
# Type: biochemical
# Experimental parameters: 10 μM concentration of test compounds; microsomal SCD1, 3H stearoyl CoA, 37° C. 30 minutes; percent of control reaction; read-out: % Inhibition
Classification field. Basis: inhibition at 10 µM. Definitions: LOW: < 40%; MID: ≥ 40% and < 80%; HIGH: ≥ 80%

Which inhibition at 10 µM category applies to Oc1cccc(C#Cc2ccc(N3CCN(CC4CC4)CC3)nn2)c1 [Example 55] here?
MID

Where would Oc1ccc(C#Cc2ccc(N3CCC(Oc4ccccc4F)CC3)nn2)cc1 [Example 76] land among the classes by reported inhibition at 10 µM?
HIGH
